Target: Syk (Homo sapiens)
Construct: purchased Carna Biosciences
Experiment: Syk HTRF assay
Type: biochemical
Conditions: IC50 activity level, read-out: Activity Level
measuredQuantity: IC50

Task item: Report value: IC50, system: Syk (Homo sapiens), compound: Cc1n[nH]c2ncc(Nc3nc4cccc(NC5CCOCC5)n4n3)cc12
Reply: 1000 to 10000 nM

Task item: Give IC50 for this entry on Syk (Homo sapiens): Cc1cc(Nc2nc3cccc(CC4CCOCC4)n3n2)cc2[nH]nc(C)c12
Reply: 0.005 to 250 nM

Task item: Write down the reported IC50 (system: Syk (Homo sapiens)) of c1cc(CC2CCOCC2)n2nc(Nc3ccc(-c4nc[nH]n4)cc3)nc2c1
Reply: 500 to 1000 nM

Task item: Answer briefly: IC50 recorded on Syk (Homo sapiens) for OC(Cc1cccc2nc(Nc3ccc(F)cc3)nn12)C1CCNCC1 (stereo not drawn)
Reply: 1000 to 10000 nM

Task item: Recall the reported IC50 of c1ccc(Cc2cccc3nc(Nc4ccccc4)nn23)cc1 on Syk (Homo sapiens) and write it down.
Reply: 1000 to 10000 nM
